Provenance of the data: ChEMBL document CHEMBL5346874

assayText: Selectivity index, ratio of CC50 for against Macaca fascicularis Primary hepatocyte to EC50 for hepatic stage of Plasmodium berghei sporozoites GFP ANKA
Assay type: toxicity
settings: cynomolgus monkey, primary hepatocytes; read-out: Ratio CC50/EC50
Given measured selectivity ratio, output y if it is greater than or equal to 2 and n if not.

**Q:** Please indicate if the recorded selectivity ratio for CCN(CC)CCCNc1nc(NC(C)(C)C)nc2cc(-c3ccc(C)cc3)sc12 meets or exceeds 2.
**A:** y

**Q:** Please indicate if the recorded selectivity ratio for Cc1ccc(-c2cc3nc(NC(C)(C)C)nc(N4CCC(NCc5ccccc5)CC4)c3s2)cc1 meets or exceeds 2.
**A:** y

**Q:** Please indicate if the recorded selectivity ratio for Cc1ccc(-c2cc3nc(NC(C)(C)C)nc(N4CCC(NCc5ccc(Cl)cc5)CC4)c3s2)cc1 meets or exceeds 2.
**A:** y

**Q:** Please indicate if the recorded selectivity ratio for Cc1ccc(-c2cc3nc(NC(C)(C)C)nc(NCCCN(C)C)c3s2)cc1 meets or exceeds 2.
**A:** y

**Q:** Please indicate if the recorded selectivity ratio for Cc1ccc(-c2cc3nc(NC(C)(C)C)nc(N4CCC(NCc5ccc(Br)cc5)CC4)c3s2)cc1 meets or exceeds 2.
**A:** n

---

measuredTarget: UniProtKB Q12809
Sequence (Q12809 whole entry): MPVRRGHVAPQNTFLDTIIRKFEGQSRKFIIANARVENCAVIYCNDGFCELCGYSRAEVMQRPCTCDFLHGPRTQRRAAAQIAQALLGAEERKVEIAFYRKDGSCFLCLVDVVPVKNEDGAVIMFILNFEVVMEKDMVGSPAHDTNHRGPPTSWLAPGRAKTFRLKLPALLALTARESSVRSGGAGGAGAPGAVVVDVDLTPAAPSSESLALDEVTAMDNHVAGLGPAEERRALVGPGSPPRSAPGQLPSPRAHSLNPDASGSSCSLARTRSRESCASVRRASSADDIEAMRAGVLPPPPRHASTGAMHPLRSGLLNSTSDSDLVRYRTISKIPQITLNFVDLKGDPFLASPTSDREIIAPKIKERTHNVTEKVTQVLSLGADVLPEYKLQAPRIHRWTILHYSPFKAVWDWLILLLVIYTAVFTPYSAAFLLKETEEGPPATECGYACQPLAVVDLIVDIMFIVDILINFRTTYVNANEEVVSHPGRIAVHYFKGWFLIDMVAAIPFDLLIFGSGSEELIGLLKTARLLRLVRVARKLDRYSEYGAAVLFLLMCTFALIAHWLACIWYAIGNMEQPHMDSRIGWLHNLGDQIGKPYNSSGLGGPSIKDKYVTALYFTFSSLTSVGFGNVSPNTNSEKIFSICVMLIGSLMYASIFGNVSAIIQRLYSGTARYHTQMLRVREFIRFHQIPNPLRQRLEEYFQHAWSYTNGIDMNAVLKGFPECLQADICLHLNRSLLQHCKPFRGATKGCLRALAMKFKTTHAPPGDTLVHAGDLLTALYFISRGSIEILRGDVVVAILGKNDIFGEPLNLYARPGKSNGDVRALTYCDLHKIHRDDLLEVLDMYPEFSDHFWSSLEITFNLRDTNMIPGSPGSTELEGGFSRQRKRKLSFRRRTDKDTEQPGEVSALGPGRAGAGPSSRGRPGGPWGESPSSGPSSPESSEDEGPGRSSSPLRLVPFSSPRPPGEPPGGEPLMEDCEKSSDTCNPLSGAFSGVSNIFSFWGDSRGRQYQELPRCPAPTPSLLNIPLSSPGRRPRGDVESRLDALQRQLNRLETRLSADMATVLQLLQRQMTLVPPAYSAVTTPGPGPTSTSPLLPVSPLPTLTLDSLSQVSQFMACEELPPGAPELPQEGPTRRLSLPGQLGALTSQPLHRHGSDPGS
Assignment: determine reported pIC50 for the given compounds.
Please note pIC50 is a logarithmic value: minus log10 of concentration in mol/L. Answer with that number alone.

**Q:** Form field: pIC50 recorded for Cc1ccc(-c2cc3nc(NC(C)(C)C)nc(NCCN(C)C)c3s2)cc1.Cl.Cl with UniProtKB Q12809 (enter value)
**A:** 5.47

**Q:** Form field: pIC50 recorded for CCN(CC)CCCNc1nc(NC(C)(C)C)nc2cc(-c3ccc(C)cc3)sc12.Cl.Cl with UniProtKB Q12809 (enter value)
**A:** 5.85

**Q:** Form field: pIC50 recorded for CCN(CC)CCNc1nc(NC(C)(C)C)nc2cc(-c3ccc(C)cc3)sc12.Cl.Cl with UniProtKB Q12809 (enter value)
**A:** 5.97

---

Test system: Plasmodium falciparum
assayText: Antiplasmodial activity against blood stage Plasmodium falciparum K1 assessed as reduction in parasite growth incubated for 72 hrs by SYBR Green I fluorescence based method
Format: functional, organism-based
settings: Plasmodium falciparum, K1, 72 h
measuredMetric: EC50 (nM)
Numeric only. Scale: nM

**Q:** Form field: EC50 recorded for Cc1ccc(-c2cc3nc(NC(C)(C)C)nc(NC4CC4)c3s2)cc1 with Plasmodium falciparum (enter value)
**A:** 1100

**Q:** Form field: EC50 recorded for Cc1ccc(CSc2cnc(NC(C)(C)C)nc2N2CCC(NCc3cccc(Cl)c3)CC2)cc1 with Plasmodium falciparum (enter value)
**A:** 1200

**Q:** Form field: EC50 recorded for Cc1ccc(-c2cc3nc(NC(C)(C)C)nc(N4CCCC4)c3s2)cc1 with Plasmodium falciparum (enter value)
**A:** 900

**Q:** Form field: EC50 recorded for Cc1ccc(-c2cc3nc(NC(C)(C)C)nc(N4CCC(NCc5ccc(Br)cc5)CC4)c3s2)cc1 with Plasmodium falciparum (enter value)
**A:** 700

**Q:** Form field: EC50 recorded for Cc1ccc(-c2cc3nc(NC(C)(C)C)nc(N4CCC(N)CC4)c3s2)cc1 with Plasmodium falciparum (enter value)
**A:** 1000

---

Tested on: Plasmodium falciparum
assayText: Antiplasmodial activity against blood stage Plasmodium falciparum K1 assessed as reduction in parasite growth incubated for 72 hrs by SYBR Green I fluorescence based method
Type: functional, organism-based
settings: Plasmodium falciparum, K1, 72 h
Assignment: determine reported pEC50 for the given compounds.
Please note pEC50 is a logarithmic value: minus log10 of concentration in mol/L. Answer with that number alone.

**Q:** Given the entry Cc1ccc(-c2cc3nc(NC(C)(C)C)nc(N4CCNCC4)c3s2)cc1 , report its measured pEC50.
**A:** 5.80

**Q:** Given the entry Cc1ccc(-c2cc3nc(NC(C)(C)C)nc(N4CCC(NC(=O)OC(C)(C)C)CC4)c3s2)cc1 , report its measured pEC50.
**A:** 5.68

**Q:** Given the entry Cc1ccc(-c2cc3nc(NC(C)(C)C)nc(NCCCN(C)C)c3s2)cc1 , report its measured pEC50.
**A:** 6.52

**Q:** Given the entry Cc1ccc(-c2cc3nc(NC(C)(C)C)nc(N4CCC4)c3s2)cc1 , report its measured pEC50.
**A:** 6.15

**Q:** Given the entry Cc1ccc(-c2cc3nc(NC(C)(C)C)nc(N4CCC(NCc5ccccc5)CC4)c3s2)cc1 , report its measured pEC50.
**A:** 6.15

**Q:** Given the entry Cc1ccc(-c2cc3nc(NC(C)(C)C)[nH]c(=O)c3s2)cc1 , report its measured pEC50.
**A:** 6.70

**Q:** Given the entry Cc1ccc(-c2cc3nc(NC(C)(C)C)nc(N4CCC(NCc5cccc(C(F)(F)F)c5)CC4)c3s2)cc1 , report its measured pEC50.
**A:** 5.89

**Q:** Given the entry CCN(CC)CCNc1nc(NC(C)(C)C)nc2cc(-c3ccc(C)cc3)sc12 , report its measured pEC50.
**A:** 6.52

**Q:** Given the entry Cc1ccc(-c2cc3nc(NC(C)(C)C)nc(N4CCOCC4)c3s2)cc1 , report its measured pEC50.
**A:** 5.80

**Q:** Given the entry Cc1ccc(-c2cc3nc(NC(C)(C)C)nc(N4CCC(C)CC4)c3s2)cc1 , report its measured pEC50.
**A:** 6.15

**Q:** Given the entry Cc1ccc(-c2cc3nc(NC(C)(C)C)nc(N4CCSCC4)c3s2)cc1 , report its measured pEC50.
**A:** 5.31

**Q:** Given the entry Cc1ccc(-c2cc3nc(NC(C)(C)C)nc(NCCN(C)C)c3s2)cc1 , report its measured pEC50.
**A:** 6.52

**Q:** Given the entry CCN(CC)CCCC(C)Nc1ccnc2cc(Cl)ccc12 (stereo not drawn) , report its measured pEC50.
**A:** 6.10

---

assayText: Selectivity index, ratio of CC50 for against Macaca fascicularis Primary hepatocyte to EC50 for hepatic stage of Plasmodium berghei sporozoites GFP ANKA
Format: toxicity
settings: cynomolgus monkey, primary hepatocytes; read-out: Ratio CC50/EC50
measuredMetric: selectivity ratio
Lab note: jot down the number only; don't add units.

**Q:** Given the entry Cc1ccc(CNC2CCN(c3nc(NC(C)(C)C)nc4cc(-c5ccc(C)cc5)sc34)CC2)cc1 , report its measured selectivity ratio.
**A:** 2.3

**Q:** Given the entry Cc1ccc(-c2cc3nc(NC(C)(C)C)nc(NCCN(C)C)c3s2)cc1 , report its measured selectivity ratio.
**A:** 1

**Q:** Given the entry CCN(CC)CCNc1nc(NC(C)(C)C)nc2cc(-c3ccc(C)cc3)sc12 , report its measured selectivity ratio.
**A:** 2.2

**Q:** Given the entry Cc1ccc(-c2cc3nc(NC(C)(C)C)nc(N4CCC(C)CC4)c3s2)cc1 , report its measured selectivity ratio.
**A:** 1.5
